The entries below come with measured Trimeric HA Binding: RLU values attached.
target: recombinant homotrimeric HA A/Vietnam/1203/04 H5N1 (Influenza A virus A/VietNam/1203/2004(H5N1)); assay: protein microarray, purified IgG, trimeric HA; conditions: remark: other sources report otherwise
Answer in RLU, number only, no unit symbol.

Below, each entry is followed by its recorded Trimeric HA Binding: RLU result.
*Q* Give the measured Trimeric HA Binding: RLU of TCN-531 (5091_H13) (antibody, V domains shown) VH: EVQLVESGGDLVQPGRSLKLSCTGSGFTFGDYGVTWVRQAPGKGLEWVGFIRTRPWGGTADTAASVKGRFTISRDDSKSLAYLQMNSLKTEDTAVYYCCRDAPPNVEVASMTNWYFDLWGRGTLVTVSS VL: DIQLTQSPSSLSASVGDRVTITCRASQGILNCLAWYQQKPGKVPNLLMYAASTLQSGVPSRFSGSGFGTDFTLTISSLQPEDVATYYCQTYGGVSTFGGGTKVEIR .
*A* 488

*Q* Give the measured Trimeric HA Binding: RLU of TCN-540 (5060_F05) (antibody, V domains shown) VH: QVQLVQSGGGVVQPGRSLRLSCAASGFTFSSYAMHWVRQAPGKGLEWVAIISYDGNDQYYTDSVKGRFTISRDSSKVYLQMHRLRPEDTAVYYCAKEFETSGYFHGSFDYWGQGILVTVSS VL: QSALTQPASVSGSPGQSITISCTGTSSDVGGYNYVSWYQQHPGKAPKLLIYEVTNWPSGVSNRFSGSKSGNTASLTISGLQAEDEADYYCSSYAGSSTWVFGGGTRVTVL .
*A* 830

Please turn your attention to the following entry.
*Q* Give the measured Trimeric HA Binding: RLU of TCN-550 (5096_F06) (antibody, V domains shown) VH: QVQLQESGPGLVKPSETLSLTCTVSGASINSHYWSWIRQPPGKGLEWIGYVYYSGSTTYNPSLKSRVTLSVDTSKNQFSLNLSSVTAADTAFYYCARHPYDVLTGSGDWFDPWGQGTLVTVSS VL: SYVLTQAPSVSVAPGQTARITCGGNAIGSKKVHWYQHKAGQAPVLVVYDDTDRPSGIPERFSGSNSWSTATLTINRVEAGDEADYYCQVWDFTIDHVVFGGGTKLTVL .
*A* 829
